Biological target: T1, murine CD22 protein (ACROBiosystems, SI2-M52Ha) (murine, UniProt P35329 22-708)
T1 construct: extracellular domain; also called murine CD22-ECD; murine CD22-ECD-His
T1 sequence (looked up): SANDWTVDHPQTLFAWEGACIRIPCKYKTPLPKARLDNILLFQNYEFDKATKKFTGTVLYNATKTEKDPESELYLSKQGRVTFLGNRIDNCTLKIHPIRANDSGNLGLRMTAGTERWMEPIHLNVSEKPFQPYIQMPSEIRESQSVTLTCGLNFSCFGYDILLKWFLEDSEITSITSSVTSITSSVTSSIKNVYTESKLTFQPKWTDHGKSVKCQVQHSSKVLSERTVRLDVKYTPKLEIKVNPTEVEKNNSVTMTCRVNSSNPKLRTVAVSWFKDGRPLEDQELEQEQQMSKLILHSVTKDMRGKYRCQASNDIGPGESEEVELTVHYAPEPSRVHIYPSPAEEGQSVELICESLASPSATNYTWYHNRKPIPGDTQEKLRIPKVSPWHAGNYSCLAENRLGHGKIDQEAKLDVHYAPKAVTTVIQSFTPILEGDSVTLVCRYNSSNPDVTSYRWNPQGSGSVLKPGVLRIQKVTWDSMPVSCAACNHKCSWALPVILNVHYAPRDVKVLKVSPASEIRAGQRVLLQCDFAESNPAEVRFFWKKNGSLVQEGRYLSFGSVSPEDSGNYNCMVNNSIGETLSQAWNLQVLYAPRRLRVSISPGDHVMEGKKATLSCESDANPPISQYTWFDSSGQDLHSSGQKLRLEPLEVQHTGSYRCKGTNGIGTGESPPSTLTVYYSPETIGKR
Assay: ELISA, coated murine CD22, 0.001 nM Ab
Exercise: for every item that follows, state its recorded OD450.
Write it as a number; the unit OD450 goes unstated.

Sample m971-hIgG1 (antibody, V domains shown, Positive control anti-human CD22 antibody; V regions from US 8,591,889 B on human IgG1 constant regions) VH: QVQLQQSGPGLVKPSQTLSLTCAISGDSVSSNSAAWNWIRQSPSRGLEWLGRTYYRSKWYNDYAVSVKSRITINPDTSKNQFSLQLNSVTPEDTAVYYCAREVTGDLEDAFDIWGQGTMVTVSS VL: DIQMTQSPSSLSASVGDRVTITCRASQTIWSYLNWYQQRPGKAPNLLIYAASSLQSGVPSRFSGRGSGTDFTLTISSLQAEDFATYYCQQSYSIPQTFGQGTKLEIKR — what was its OD450?
0.06

Same for F1.105.11 human-murine chimeric antibody (antibody, human IgG1, kappa, V domains shown, Chimeric, human IgG1 / kappa; VL tied by name) VH: EVQLQQSGPVLVKPGASVKMSCKASGYTFSDYFMNWVKQSHGKSLEWIGIINSYSGGTSYNQKFKGKATLTVDKSSSTAYMELNSLTSEDSAVYYCARWMDYWGQGTSVTVSS VL: DVQITQSPSYLAASPGETITINCRTSESISKHLAWYQEKPGKTNKLLIYSGSTLQSGIPSRFSGSGSGTDFTLTISSLEPEDFAMYYCQQHNEYPWTFGGGTKLEIKR
0.05

Same for F1.161.7 human-murine chimeric antibody (antibody, human IgG1, kappa, V domains shown, Chimeric, human IgG1 / kappa) VH: QVQLQQPGAELVKPGASVKMSCKASGYTFTSYWISWVKQRPGQGLEWIGDIYPGTGSSNYNEKFKSKATLTVDTSSSTAYMQLSSLTSEDSAVYYCARLKFEGIGYWGQGTTLTVSS VL: QIVLTQSPAIMSASLGEEITLTCSASSSVSYMHWFQQKSGTSPKLLIYSISNLASGVPSRFSGSGSGTFYSLTISSVEAEDAADYYCHQWSSYPWTFGGGTKLEIKR
0.05
